conditions: 318.15 K; 101.33 kPa; Liquid; Concentric cylinders viscometry
Numbers after ± are expanded uncertainties.
Let's look at some compounds and their measured viscosity.
Report field: quantity (unit follows the number).

Param item = CCCCCCCCCCCCCC[P+](CCCCCC)(CCCCCC)CCCCCC.O=S(=O)([N-]S(=O)(=O)C(F)(F)F)C(F)(F)F ; retrieve measured viscosity.
119.85 ± 1.7 mPa·s

Further, for CCCCCCCCCCCCCC[P+](CCCCCC)(CCCCCC)CCCCCC.[Br-] [tetradecyltrihexylphosphonium bromide] ?
764.04 ± 28 mPa·s

Further, for CCCCCCCCCCCCCC[P+](CCCCCC)(CCCCCC)CCCCCC.N#C[N-]C#N [tetradecyl(trihexyl)phosphonium dicyanamide] ?
153.15 ± 2.5 mPa·s

* * *

Let's look at some compounds and their measured mass density.
settings: 343.15 K; 101.33 kPa; Liquid; Vibrating tube method
Give a bare numeral; the unit kg/m3 is implied.

Solved entries (count: 3):
COMPOUND: CCCCCCCCCCCCCC[P+](CCCCCC)(CCCCCC)CCCCCC.[Br-] [tetradecyltrihexylphosphonium bromide]
mass density, kg/m3: 927.6
--
COMPOUND: CCCCCCCCCCCCCC[P+](CCCCCC)(CCCCCC)CCCCCC.CS(=O)(=O)[O-] [trihexyltetradecylphosphonium methanesulfonate]
mass density, kg/m3: 901.2
--
COMPOUND: CCCCCCCCCCCCCC[P+](CCCCCC)(CCCCCC)CCCCCC.[Cl-] [trihexyl(tetradecyl)phosphonium chloride]
mass density, kg/m3: 863.7

Param item = CCCCCCCCCC(=O)[O-].CCCCCCCCCCCCCC[P+](CCCCCC)(CCCCCC)CCCCCC [trihexyltetradecylphosphonium decanoate] ; retrieve measured mass density.
853.2

Further, for CCCCCCCCCCCCCC[P+](CCCCCC)(CCCCCC)CCCCCC.O=S(=O)([N-]S(=O)(=O)C(F)(F)F)C(F)(F)F ?
1033.7

Further, for CCCCCCCCCCCCCC[P+](CCCCCC)(CCCCCC)CCCCCC.N#C[N-]C#N [tetradecyl(trihexyl)phosphonium dicyanamide] ?
873.7

Further, for CC(CC(C)(C)C)CP(=O)([O-])CC(C)CC(C)(C)C.CCCCCCCCCCCCCC[P+](CCCCCC)(CCCCCC)CCCCCC ?
858.9

* * *

details: 278.15 K; 101.33 kPa; Liquid; Concentric cylinders viscometry
Please note: viscosity exactly at 8000 mPa·s is False. Only values below 8000 mPa·s get True.

MOLECULE: CCCCCCCCCCCCCC[P+](CCCCCC)(CCCCCC)CCCCCC.[Cl-] [trihexyl(tetradecyl)phosphonium chloride]
CLASS_LABEL: False
//
MOLECULE: CCCCCCCCCCCCCC[P+](CCCCCC)(CCCCCC)CCCCCC.O=S(=O)([N-]S(=O)(=O)C(F)(F)F)C(F)(F)F
CLASS_LABEL: True
//
MOLECULE: CC(CC(C)(C)C)CP(=O)([O-])CC(C)CC(C)(C)C.CCCCCCCCCCCCCC[P+](CCCCCC)(CCCCCC)CCCCCC
CLASS_LABEL: True
//
MOLECULE: CCCCCCCCCC(=O)[O-].CCCCCCCCCCCCCC[P+](CCCCCC)(CCCCCC)CCCCCC [trihexyltetradecylphosphonium decanoate]
CLASS_LABEL: True
//
MOLECULE: CCCCCCCCCCCCCC[P+](CCCCCC)(CCCCCC)CCCCCC.[Br-] [tetradecyltrihexylphosphonium bromide]
CLASS_LABEL: False
//
MOLECULE: CCCCCCCCCCCCCC[P+](CCCCCC)(CCCCCC)CCCCCC.CS(=O)(=O)[O-] [trihexyltetradecylphosphonium methanesulfonate]
CLASS_LABEL: True

Shifting focus to the molecule that follows.
For CCCCCCCCCCCCCC[P+](CCCCCC)(CCCCCC)CCCCCC.N#C[N-]C#N [tetradecyl(trihexyl)phosphonium dicyanamide] , is the recorded viscosity below the cut-off of 8000 mPa·s?
True

* * *

details: 313.15 K; 101.33 kPa; Liquid; Vibrating tube method
READOUT_KIND: mass density (kg/m3)
Give a bare numeral; the unit kg/m3 is implied.

COMPOUND: CCCCCCCCCCCCCC[P+](CCCCCC)(CCCCCC)CCCCCC.O=S(=O)([N-]S(=O)(=O)C(F)(F)F)C(F)(F)F
mass density / kg/m3: 1055.2
//
COMPOUND: CCCCCCCCCCCCCC[P+](CCCCCC)(CCCCCC)CCCCCC.CS(=O)(=O)[O-] [trihexyltetradecylphosphonium methanesulfonate]
mass density / kg/m3: 918.9
//
COMPOUND: CCCCCCCCCC(=O)[O-].CCCCCCCCCCCCCC[P+](CCCCCC)(CCCCCC)CCCCCC [trihexyltetradecylphosphonium decanoate]
mass density / kg/m3: 871.3

Param item = CCCCCCCCCCCCCC[P+](CCCCCC)(CCCCCC)CCCCCC.[Cl-] [trihexyl(tetradecyl)phosphonium chloride] ; retrieve measured mass density.
881.1

* * *

details: 298.15 K; 101.33 kPa; Liquid; Concentric cylinders viscometry
Numbers after ± are expanded uncertainties.
Let's look at some compounds and their measured viscosity.

Solved entries (count: 3):
COMPOUND: CCCCCCCCCC(=O)[O-].CCCCCCCCCCCCCC[P+](CCCCCC)(CCCCCC)CCCCCC [trihexyltetradecylphosphonium decanoate]
OBSERVED_RESULT: 471.51 ± 15 mPa·s
//
COMPOUND: CC(CC(C)(C)C)CP(=O)([O-])CC(C)CC(C)(C)C.CCCCCCCCCCCCCC[P+](CCCCCC)(CCCCCC)CCCCCC
OBSERVED_RESULT: 1401.7 ± 63 mPa·s
//
COMPOUND: CCCCCCCCCCCCCC[P+](CCCCCC)(CCCCCC)CCCCCC.O=S(=O)([N-]S(=O)(=O)C(F)(F)F)C(F)(F)F
OBSERVED_RESULT: 336.74 ± 8.9 mPa·s

# next compound below
Param item = CCCCCCCCCCCCCC[P+](CCCCCC)(CCCCCC)CCCCCC.[Br-] [tetradecyltrihexylphosphonium bromide] ; retrieve measured viscosity.
2988.4 ± 170 mPa·s

* * *

settings: 293.15 K; 101.33 kPa; Liquid; Vibrating tube method
READOUT_KIND: mass density (kg/m3)
Give a bare numeral; the unit kg/m3 is implied.

COMPOUND: CCCCCCCCCCCCCC[P+](CCCCCC)(CCCCCC)CCCCCC.CS(=O)(=O)[O-] [trihexyltetradecylphosphonium methanesulfonate]
READOUT_KIND: mass density
OBSERVED_RESULT: 931.2
//
COMPOUND: CCCCCCCCCCCCCC[P+](CCCCCC)(CCCCCC)CCCCCC.[Br-] [tetradecyltrihexylphosphonium bromide]
READOUT_KIND: mass density
OBSERVED_RESULT: 958.2
//
COMPOUND: CCCCCCCCCCCCCC[P+](CCCCCC)(CCCCCC)CCCCCC.N#C[N-]C#N [tetradecyl(trihexyl)phosphonium dicyanamide]
READOUT_KIND: mass density
OBSERVED_RESULT: 901.9
//
COMPOUND: CC(CC(C)(C)C)CP(=O)([O-])CC(C)CC(C)(C)C.CCCCCCCCCCCCCC[P+](CCCCCC)(CCCCCC)CCCCCC
READOUT_KIND: mass density
OBSERVED_RESULT: 888.3
//
COMPOUND: CCCCCCCCCCCCCC[P+](CCCCCC)(CCCCCC)CCCCCC.O=S(=O)([N-]S(=O)(=O)C(F)(F)F)C(F)(F)F
READOUT_KIND: mass density
OBSERVED_RESULT: 1069.8
//
COMPOUND: CCCCCCCCCCCCCC[P+](CCCCCC)(CCCCCC)CCCCCC.[Cl-] [trihexyl(tetradecyl)phosphonium chloride]
READOUT_KIND: mass density
OBSERVED_RESULT: 892.8

# next compound below
Param item = CCCCCCCCCC(=O)[O-].CCCCCCCCCCCCCC[P+](CCCCCC)(CCCCCC)CCCCCC [trihexyltetradecylphosphonium decanoate] ; retrieve measured mass density.
883.7

* * *

Let's look at some molecules and their measured mass density.
details: 288.15 K; 101.33 kPa; Liquid; Vibrating tube method
Give a bare numeral; the unit kg/m3 is implied.

Param item = CCCCCCCCCCCCCC[P+](CCCCCC)(CCCCCC)CCCCCC.[Cl-] [trihexyl(tetradecyl)phosphonium chloride] ; retrieve measured mass density.
895.7

Further, for CCCCCCCCCCCCCC[P+](CCCCCC)(CCCCCC)CCCCCC.N#C[N-]C#N [tetradecyl(trihexyl)phosphonium dicyanamide] ?
904.9

Further, for CCCCCCCCCCCCCC[P+](CCCCCC)(CCCCCC)CCCCCC.CS(=O)(=O)[O-] [trihexyltetradecylphosphonium methanesulfonate] ?
934.3

Further, for CCCCCCCCCC(=O)[O-].CCCCCCCCCCCCCC[P+](CCCCCC)(CCCCCC)CCCCCC [trihexyltetradecylphosphonium decanoate] ?
886.9

Further, for CCCCCCCCCCCCCC[P+](CCCCCC)(CCCCCC)CCCCCC.O=S(=O)([N-]S(=O)(=O)C(F)(F)F)C(F)(F)F ?
1073.6

Further, for CCCCCCCCCCCCCC[P+](CCCCCC)(CCCCCC)CCCCCC.[Br-] [tetradecyltrihexylphosphonium bromide] ?
961.3

Further, for CC(CC(C)(C)C)CP(=O)([O-])CC(C)CC(C)(C)C.CCCCCCCCCCCCCC[P+](CCCCCC)(CCCCCC)CCCCCC ?
891.3
